These measurements were taken from ChEMBL document CHEMBL3286180.

- assay-name: Lipophilicity, log D of the compound
- Assay type: physicochemical
- run-parameters: octanol/water
measurement-kind: logD

{"smiles-record": "Cc1cc(C(=O)N[C@H]2CC[C@@H](NC(=O)c3cc(F)cnc3Oc3cccc(-c4cccc(CN5C[C@@H](C)N[C@@H](C)C5)c4)c3)CC2)nn1C", "logD": 2.1}
{"smiles-record": "Cc1csc(C(=O)N[C@H]2CC[C@@H](NC(=O)c3cc(F)cnc3Oc3cccc(-c4ccc(CN5C[C@@H](C)N[C@@H](C)C5)cc4CN4CCOCC4)c3)CC2)n1", "logD": 1.9}
{"smiles-record": "Cc1cc(C(=O)N[C@H]2CC[C@@H](NC(=O)c3cc(F)cnc3Oc3cccc(-c4ccc(CCCN5C[C@@H](C)N[C@@H](C)C5)cc4)c3)CC2)nn1C", "logD": 2.6}
{"smiles-record": "Cc1cc(C(=O)N[C@H]2CC[C@@H](NC(=O)c3cc(F)cnc3Oc3cccc(-c4ccc(CN5C[C@@H](C)N[C@@H](C)C5)c(O)c4)c3)CC2)nn1C", "logD": 2.4}
{"smiles-record": "C[C@@H]1CN(Cc2ccc(-c3cccc(Oc4ncc(F)cc4C(=O)N[C@H]4CC[C@@H](NC(=O)c5cc6ccccn6n5)CC4)c3)cc2)C[C@H](C)N1", "logD": 2.7}
{"smiles-record": "Cc1cccc2nc(C(=O)N[C@H]3CC[C@@H](NC(=O)c4cc(F)cnc4Oc4cccc(-c5ccc(CN6C[C@@H](C)N[C@@H](C)C6)cc5)c4)CC3)cn12", "logD": 2.7}
{"smiles-record": "Cc1cc(C(=O)N[C@H]2CC[C@@H](NC(=O)c3cc(F)cnc3Oc3cccc(-c4cccc(CN5C[C@@H](C)N[C@@H](C)C5)c4O)c3)CC2)nn1C", "logD": 2.8}
{"smiles-record": "Cc1cccc2nc(C(=O)N[C@H]3CC[C@@H](NC(=O)c4cc(F)cnc4Oc4cccc(-c5ccc(CN6CCC(N7CCCC7)CC6)cc5)c4)CC3)cn12", "logD": 3.2}
{"smiles-record": "Cc1cc(C(=O)N[C@H]2CC[C@@H](NC(=O)c3cc(F)cnc3Oc3cccc(-c4ccc(CCN5CCC(N6CCCC6)CC5)cc4)c3)CC2)nn1C", "logD": 2.4}

----------
- assay-name: Lipophilicity, log D of the compound
- Format: physicochemical
- run-parameters: octanol/water
measurement-kind: logD

Look over these answered cases.
{"smiles-record": "Cc1cc(C(=O)N[C@H]2CC[C@@H](NC(=O)c3cc(F)cnc3Oc3cccc(-c4ccc(CN5C[C@@H](C)N[C@@H](C)C5)cc4)c3)CC2)nn1C", "measurement-kind": "logD", "value-measured": 2.4}
{"smiles-record": "Cc1cc(C(=O)N[C@H]2CC[C@@H](NC(=O)c3cc(F)cnc3Oc3cccc(-c4cc(O)cc(CN5C[C@@H](C)N[C@@H](C)C5)c4)c3)CC2)nn1C", "measurement-kind": "logD", "value-measured": 2.2}

P: Cc1ccc(O)c(C(=O)N[C@H]2CC[C@@H](NC(=O)c3cc(F)cnc3Oc3ccc(F)c(F)c3)CC2)c1
Q: Cc1ccc(O)c(C(=O)N[C@H]2CC[C@@H](NC(=O)c3cc(F)cnc3Oc3cccc(-c4ccc(CN5C[C@@H](C)N[C@@H](C)C5)cc4CN4CCOCC4)c3)CC2)c1
Inquiry: Lower value of logD belongs to which: P or Q ? The response must carry the label of the picked entry.
Reply text: Q
(Q: 2.8, P: 4.4)
